FYI, the data here is from the Human Domainome abundance scans (Beltran et al. 2025).

B1: Far upstream element-binding protein 1, residues 98 to 169; numbered along this chain, Q96AE4 (parent)
chain: RSVMTEEYKVPDGMVGFIIGRGGEQISRIQQESGCKIQIAPDSGGLPERSCMLTGTPESVQSAKRLLDQIVE

Variants of: B1
Test: abundance fitness (aPCA) (normalised: wild type 0, dead -1); higher = more abundant; growth selection in yeast, the domain comes from the species named
Details: Homo sapiens
Each entry below lists one item and its recorded abundance fitness value.
Number, no unit, nothing else.

Would you please look over these solved cases?
1) V15D ... -0.158
2) T54K ... 0.01
3) R1C ... -0.013
4) I29K ... -0.881
5) L67Y ... -0.815
6) I70N ... -0.142

Query abundance fitness for I70P
-0.259
